The reported measurements were obtained from ChEMBL document CHEMBL1138169.

Parameter Cmax: see the listing below.
- method.description: Cmax in mouse at 60 mg/kg, ip
- Format: ADME, organism-based
- Design: dose 60 mg/kg, route intraperitoneal
- condition.details: in vivo
Numeric answer only, unit µM assumed.

Entry c1ccc(CNc2ccsc2-c2nnc(Nc3ccc4c(c3)OCCO4)o2)nc1 ; Cmax = 59.2

====

- target.entity: Tubulin
- method.description: Inhibition of tubulin polymerization
- Format: functional, Homo sapiens
Examples of compounds with documented IC50 follow.
Entry rule: numbers only, all in nM.

Looking up Cc1ccc(-c2nnc(Nc3ccc4c(c3)OCCO4)o2)c(NCc2ccccn2)n1 , I found its IC50 recorded as 2400

So for c1ccc(CNc2ccsc2-c2nnc(Nc3ccc4c(c3)OCCO4)o2)nc1 , the logged IC50 turned out to be 4400

Lab note: Fc1ccc(CNc2ncccc2-c2nnc(Nc3ccc4c(c3)OCO4)o2)cc1F gave IC50 of 2200

Documented IC50 of c1cnc(NCc2ccc3c(c2)OCO3)c(-c2nnc(Nc3ccc4c(c3)OCCO4)o2)c1 : 500

For reference, reported IC50 for Fc1ccc(CNc2ncccc2-c2nnc(Nc3ccc4c(c3)OCCO4)o2)cc1 stands at 5000

====

Entries annotated with measured AUC(0-t) at 4 h
- method.description: AUC (0-4 h) in mouse at 60 mg/kg, ip
- Assay type: ADME, organism-based
- Parameters: time < 4 hr, dose 60 mg/kg, route intraperitoneal
- condition.details: plasma
The reply should contain only the number, in µM·h.

# annotated cases, reported AUC(0-t) at 4 h shown
[
  {
    "compound": "c1cncc(CNc2ncccc2-c2nnc(Nc3ccc4c(c3)OCCO4)o2)c1",
    "unit.text": "µM·h",
    "AUC(0-t) at 4 h": 6.7
  },
  {
    "compound": "c1ccc(CNc2ccccc2-c2cnc(Nc3ccc4c(c3)OCCO4)o2)nc1",
    "unit.text": "µM·h",
    "AUC(0-t) at 4 h": 14.4
  },
  {
    "compound": "c1ccc(CNc2ncccc2-c2nnc(Nc3ccc4c(c3)OCO4)o2)nc1",
    "unit.text": "µM·h",
    "AUC(0-t) at 4 h": 21.5
  },
  {
    "compound": "c1cnc(NCC2CCCO2)c(-c2nnc(Nc3ccc4c(c3)OCCO4)o2)c1 (centres undefined)",
    "unit.text": "µM·h",
    "AUC(0-t) at 4 h": 26.3
  },
  {
    "compound": "c1ccc(CNc2ncccc2-c2nnc(Nc3ccc4c(c3)OCCO4)o2)nc1",
    "unit.text": "µM·h",
    "AUC(0-t) at 4 h": 31.2
  }
]

Next compound, please.
# compound c1cnc(NCc2ccncc2)c(-c2nnc(Nc3ccc4c(c3)OCO4)o2)c1 ; its AUC(0-t) at 4 h = 52.6

====

- Tested on: A-431
- method.description: Cell cycle arrest in A431 cells by accumulation at G2/M phase
- Format: functional, cell-based
- condition.details: Homo sapiens
result.type: EC50 (nM)
Numeric only. Scale: nM

[
  {
    "molecule": "c1ccc(CNc2ncccc2-c2nnc(Nc3ccc4c(c3)OCCO4)o2)nc1",
    "unit.text": "nM",
    "EC50": 16
  },
  {
    "molecule": "c1ccc(CNc2ccsc2-c2nnc(Nc3ccc4c(c3)OCCO4)o2)nc1",
    "unit.text": "nM",
    "EC50": 22
  },
  {
    "molecule": "COc1ccc(/C=C\\c2cc(OC)c(OC)c(OC)c2)cc1O",
    "unit.text": "nM",
    "EC50": 3.5
  },
  {
    "molecule": "c1ccc(COc2ncccc2-c2nnc(Nc3ccc4c(c3)OCCO4)o2)nc1",
    "unit.text": "nM",
    "EC50": 260
  },
  {
    "molecule": "Fc1ccc(CNc2ncccc2-c2nnc(Nc3ccc4c(c3)OCCO4)o2)cc1",
    "unit.text": "nM",
    "EC50": 60
  },
  {
    "molecule": "c1cncc(CNc2ncccc2-c2nnc(Nc3ccc4c(c3)OCO4)o2)c1",
    "unit.text": "nM",
    "EC50": 31
  },
  {
    "molecule": "c1coc(CNc2ncccc2-c2nnc(Nc3ccc4c(c3)OCCO4)o2)c1",
    "unit.text": "nM",
    "EC50": 45
  },
  {
    "molecule": "c1ccc(CNc2ncccc2-c2nnc(Nc3ccc4c(c3)OCO4)o2)nc1",
    "unit.text": "nM",
    "EC50": 49
  },
  {
    "molecule": "c1cnc(NCC2CCCO2)c(-c2nnc(Nc3ccc4c(c3)OCCO4)o2)c1 (centres undefined)",
    "unit.text": "nM",
    "EC50": 160
  },
  {
    "molecule": "c1ccc(CNc2ccccc2-c2cnc(Nc3ccc4c(c3)OCCO4)o2)nc1",
    "unit.text": "nM",
    "EC50": 35
  }
]

The reported value for c1coc(CNc2ncccc2-c2nnc(Nc3ccc4c(c3)OCO4)o2)c1 in terms of EC50 is 130

# molecule Fc1ccc(CNc2ncccc2-c2nnc(Nc3ccc4c(c3)OCCO4)o2)cc1F ; its EC50 = 15

Entry c1cnc(NCc2cnccn2)c(-c2nnc(Nc3ccc4c(c3)OCO4)o2)c1 , EC50 reported as 210

Recorded result, c1cnc(NCc2ccncc2)c(-c2nnc(Nc3ccc4c(c3)OCCO4)o2)c1 , EC50: 18

Form: molecule = COc1ccc(CNc2ncccc2-c2nnc(Nc3ccc4c(c3)OCCO4)o2)cc1 ; EC50 = 23

Input Fc1cnc(NCc2ccccn2)c(-c2nnc(Nc3ccc4c(c3)OCCO4)o2)c1 . Output EC50: 82

Lab note: measured EC50 of c1cnc(NCc2ccncc2)c(-c2nnc(Nc3ccc4c(c3)OCO4)o2)c1 was 20

Given item c1cnc(NCc2ccc3c(c2)OCCO3)c(-c2nnc(Nc3ccc4c(c3)OCCO4)o2)c1 , the value recorded as its EC50 is 57

Quick note, EC50 for CC(=O)O[C@H]1C(=O)[C@@]2(C)[C@H]([C@H](OC(=O)c3ccccc3)[C@]3(O)C[C@H](OC(=O)[C@H](O)[C@@H](NC(=O)c4ccccc4)c4ccccc4)C(C)=C1C3(C)C)[C@]1(OC(C)=O)CO[C@@H]1C[C@@H]2O landed at 9
